Consider the following compounds; for each one, report its Percent Effect.
# Test system: Wolbachia pipientis
# assayInfo: Anti-Wolbachia Cell-Based Screen
# Assay type: functional
# Parameters: scale not given: in the data most compounds retested in dose-response had high values
# measurementConditions: 5 µM
The whole screen tested about 48,000 compounds, of which about 13,000 (27%) showed an effect of 50% or more. The list shows a part of the results.
Answers are plain numbers, in %.

For orientation, consider the following solved cases.
[
  {
    "compound": "O=C(O)c1ccc(N2CCC(Oc3cccc(F)c3)CC2)nc1",
    "scaleUnit": "%",
    "Percent Effect": 7.42
  },
  {
    "compound": "CCOCCn1c(=O)n(Cc2ccccc2F)c2cc(C(=O)O)cnc21",
    "scaleUnit": "%",
    "Percent Effect": -1.705
  },
  {
    "compound": "O=S(=O)(c1cccnc1)N1CCC(OCCCc2ccccc2)C1 (stereo unspecified)",
    "scaleUnit": "%",
    "Percent Effect": -0.692
  },
  {
    "compound": "Cc1ncsc1CN1C[C@@H]2CN(S(C)(=O)=O)CCO[C@@H]2C1",
    "scaleUnit": "%",
    "Percent Effect": -34.03
  },
  {
    "compound": "CCSCCn1c(=O)n(Cc2ccc(F)cc2)c2ncc(C(=O)O)cc21",
    "scaleUnit": "%",
    "Percent Effect": -21.36
  }
]

Provide reported Percent Effect for each item, in the same order as listed.
1. O=S(=O)(c1ccccc1)N1CCOCC(Cc2cccnc2)C1 (stereo unspecified)
2. CN(CC1CCCN(S(C)(=O)=O)C1)c1cnn(C)c1 (stereo unspecified)
3. Cc1cnc(N2CCC[C@@H]3CN(S(C)(=O)=O)C[C@@H]32)nc1
4. O=C(NCC(Cc1cccc(F)c1)N1CCCC1=O)c1ccccc1 (stereo unspecified)

## Result
1: 91.68; 2: 7.496; 3: 11.33; 4: -3.129

Please state Percent Effect for every compound in the list that follows.
1. Cc1ccc(CC2COCCN(S(=O)(=O)c3ccccc3)C2)nc1 (stereo unspecified)
2. N#Cc1ccc(N2CC3(CCN(c4nccs4)C3)C2)nc1.O=CO.O=CO

## Result
[86.08, -6.647]
